ASSAY COMMENT: in vivo
DETAILS: sheep, 0.15 mg/kg, morphine-6-glucuronide concentration (plasma)
REPORTED PROPERTY: concentration at 0.25 h (ng/mL)
A number alone suffices; assume ng/mL.

**Query** Form field: reported concentration at 0.25 h of CN1CC[C@]23c4c5ccc(O)c4O[C@H]2[C@@H](O[C@@H]2O[C@H](C(=O)O)[C@@H](O)[C@H](O)[C@H]2O)C=C[C@H]3[C@H]1C5 [morphine-6-glucuronide]
**Result** 121

====

ASSAY COMMENT: Pharmacokinetic parameters after intravenous administration to sheep
DETAILS: sheep, plasma, iv, 0.015 mg/kg, Tmax, i.v. 0.015 mg/kg; mean of 3 sheep
REPORTED PROPERTY: Tmax

**Query** Form field: reported Tmax of CN1CC[C@]23c4c5ccc(O)c4O[C@H]2[C@@H](O[C@@H]2O[C@H](C(=O)O)[C@@H](O)[C@H](O)[C@H]2O)C=C[C@H]3[C@H]1C5 [morphine-6-glucuronide]
**Result** 3 min

====

ASSAY COMMENT: Pharmacokinetic parameters after nasal administration to sheep
DETAILS: sheep, plasma, 0.15 mg/kg, Bioavailability, nasal 0.15 mg/kg with 0.5% chitosan, vs normalised mean i.v. AUC; individual sheep IF, JF, KF
REPORTED PROPERTY: bioavailability

**Query** Form field: reported bioavailability of CN1CC[C@]23c4c5ccc(O)c4O[C@H]2[C@@H](O[C@@H]2O[C@H](C(=O)O)[C@@H](O)[C@H](O)[C@H]2O)C=C[C@H]3[C@H]1C5 [morphine-6-glucuronide]
**Result** 32.9%

====

ASSAY COMMENT: in vivo
DETAILS: sheep, 0.15 mg/kg, morphine-6-glucuronide concentration (plasma)
REPORTED PROPERTY: concentration at 6 h

**Query** Form field: reported concentration at 6 h of CN1CC[C@]23c4c5ccc(O)c4O[C@H]2[C@@H](O[C@@H]2O[C@H](C(=O)O)[C@@H](O)[C@H](O)[C@H]2O)C=C[C@H]3[C@H]1C5 [morphine-6-glucuronide]
**Result** < 1 ng/mL

====

ASSAY COMMENT: Pharmacokinetic parameters after intravenous administration to sheep
DETAILS: sheep, plasma, iv, 0.015 mg/kg, Apparent Volume of Distibution, i.v. 0.015 mg/kg; mean of 3 sheep
REPORTED PROPERTY: Vd (L/kg)
A number alone suffices; assume L/kg.

**Query** Form field: reported Vd of CN1CC[C@]23c4c5ccc(O)c4O[C@H]2[C@@H](O[C@@H]2O[C@H](C(=O)O)[C@@H](O)[C@H](O)[C@H]2O)C=C[C@H]3[C@H]1C5 [morphine-6-glucuronide]
**Result** 0.41

====

ASSAY COMMENT: Pharmacokinetic parameters after intravenous administration to sheep
DETAILS: sheep, plasma, iv, 0.015 mg/kg, Area Under Curve, i.v. 0.015 mg/kg; 0-300 min; mean of 3 sheep
REPORTED PROPERTY: AUC at 5 h (ng·h/mL)
A number alone suffices; assume ng·h/mL.

**Query** Form field: reported AUC at 5 h of CN1CC[C@]23c4c5ccc(O)c4O[C@H]2[C@@H](O[C@@H]2O[C@H](C(=O)O)[C@@H](O)[C@H](O)[C@H]2O)C=C[C@H]3[C@H]1C5 [morphine-6-glucuronide]
**Result** 47.5
